Origin of measurements: patent US20250099420A1

Target: GPR139 (Homo sapiens, UniProt Q6DWJ6)
Sequence (Q6DWJ6 whole entry): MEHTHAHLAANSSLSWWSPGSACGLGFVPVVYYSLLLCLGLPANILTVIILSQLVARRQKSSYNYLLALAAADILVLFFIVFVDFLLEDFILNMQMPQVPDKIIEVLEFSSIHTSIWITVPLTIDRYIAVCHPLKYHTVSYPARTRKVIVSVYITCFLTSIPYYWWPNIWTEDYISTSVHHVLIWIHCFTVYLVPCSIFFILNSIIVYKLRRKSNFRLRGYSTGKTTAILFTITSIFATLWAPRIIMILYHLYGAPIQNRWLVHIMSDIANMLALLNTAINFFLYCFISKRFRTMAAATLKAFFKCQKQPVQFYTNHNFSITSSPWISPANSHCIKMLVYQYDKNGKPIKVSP
Test: GPR139 Agonist titration / agonist counterscreen assay (calcium detection, HEK-GPR139 cells)
Assay type: cell-based
Set-up: expressed in transfected cells; host or cells: HEK Aequorin cells, Maxcyte transient transfection
Settings: GPR139 Agonist Activity
assay_metric: Hill Slope
// print number alone

Prompt line: // Input: CC1(c2ccc3c(c2)OCO3)NC(=O)N(CC(=O)NC2CCCC2)C1=O (stereo not drawn) [SR-01000065547] . Output its Hill Slope only.
Response line: 0.59

Prompt line: // Input: Cc1ccc(NC(=O)CSC2=C(C#N)C(c3ccc(F)cc3)CC(=O)N2)c(C)c1 (stereo not drawn) [SR-01000484494] . Output its Hill Slope only.
Response line: 0.89

Prompt line: // Input: CSc1ccc(CCNC(=O)Cn2ncc3c(=O)oc4ccccc4c32)cc1 [SR-01000105999] . Output its Hill Slope only.
Response line: 1.37

Prompt line: // Input: Cc1ccccc1-c1nnc(CN2CCc3ccccc3C2)o1 [SR-01000162178] . Output its Hill Slope only.
Response line: 1.13

Prompt line: // Input: CC(CCC(=O)C12CC3CC(CC(C3)C1)C2)CCc1ccc2ccccc2c1 (stereo not drawn) [SR-01000359546] . Output its Hill Slope only.
Response line: 0.53

Prompt line: // Input: CCOC(=O)c1ccc(NC(=O)Cn2c(C)c(C=O)c3ccccc32)cc1 [SR-01000248261] . Output its Hill Slope only.
Response line: 1.06

---

Biological target: GPR139 (Homo sapiens, UniProt Q6DWJ6)
Assay: GPR139 Agonist titration / agonist counterscreen assay (calcium detection, HEK-GPR139 cells)
Format: cell-based
Set-up: expressed in transfected cells; host or cells: HEK Aequorin cells, Maxcyte transient transfection
Details: GPR139 Agonist Activity; based on logP
Hi there, I'd appreciate the recorded Lipophilic Efficiency (logP) for every entry that follows.
// print number alone

Prompt line: // Input: CC(C(=O)NCCC1=CCCCC1)n1c(=O)c2cccn2c2ccccc21 (stereo not shown) . Output its Lipophilic Efficiency (logP) only.
Response line: 4.22

Prompt line: // Input: CC(CCc1ccccc1)NC(=O)Cn1cc2c(n1)CCCC2 (stereo not shown) . Output its Lipophilic Efficiency (logP) only.
Response line: 4.32

Prompt line: // Input: CC1(c2ccc3ccccc3c2)NC(=O)N(CC(=O)Nc2ccccc2Cl)C1=O (stereo not shown) . Output its Lipophilic Efficiency (logP) only.
Response line: 3.74

Prompt line: // Input: Cc1ccc(OCC(=O)NNC(=O)CN(C)S(=O)(=O)c2ccc(C)cc2)cc1 . Output its Lipophilic Efficiency (logP) only.
Response line: 5.43

Prompt line: // Input: Cc1cccc(C(=O)NNC(=O)C(C)Oc2ccc(O)cc2O)c1 (stereo not shown) . Output its Lipophilic Efficiency (logP) only.
Response line: 5.24

Prompt line: // Input: O=C(CN1CCN(C/C=C/c2ccccc2)CC1)NCCCc1ccccc1 . Output its Lipophilic Efficiency (logP) only.
Response line: 3.51

Prompt line: // Input: CCC1Cc2ccc(C)cc2CC1C(=O)Nc1ccc(-c2cn[nH]c2)cc1OCCN(C)C (stereo not shown) . Output its Lipophilic Efficiency (logP) only.
Response line: 4.48

Prompt line: // Input: COc1ccc(CCCC(=O)c2cccc(-c3ccc(OC)cc3)c2)cc1 . Output its Lipophilic Efficiency (logP) only.
Response line: 3.70

Prompt line: // Input: Cc1ccc(CCNC(=O)Cn2cc3c(n2)CCCC3)cc1 . Output its Lipophilic Efficiency (logP) only.
Response line: 5.09

Prompt line: // Input: CCOC(=O)c1ccc(CSc2nnc(N)s2)cc1 . Output its Lipophilic Efficiency (logP) only.
Response line: 4.03

Prompt line: // Input: CC(C)CN1CCNC(=O)C1CC(=O)NCCCn1ccc2ccccc21 (stereo not shown) . Output its Lipophilic Efficiency (logP) only.
Response line: 6.03

Prompt line: // Input: COc1ccc(NC(=O)Cn2ncc3c2-c2ccccc2OC3)cc1Cl . Output its Lipophilic Efficiency (logP) only.
Response line: 4.16

Prompt line: // Input: O=C(Cn1ccc2ccccc21)NCCn1cnc(-c2ccccc2)cc1=O . Output its Lipophilic Efficiency (logP) only.
Response line: 5.36
